target: DLG2_3, Q15700; experiment: holdup assay; parameters: key: below the threshold = too weak to quantify, mostly under pKd 3.1 to 4; settings: plain residues with an end cap or a label only (N-terminal biotin on a linker: ado-ado)
measuredParameter: pKd

INSERT INTO results (binder, measuredparameter, recordedvalue) VALUES
  ('QLGSPTADLA [SIPA1, Q96FS4]', 'pKd', 3.57),
  ('SQPLLVHDDV [KIT, P10721]', 'pKd', 'below the threshold'),
  ('EKPIDSETKM [SLC1A3, P43003]', 'pKd', 'below the threshold'),
  ('PALKNGQYWV [CSPG4, Q6UVK1]', 'pKd', 'below the threshold');
